Taken from patent US20250002493A1.

Parameter Proportion of apoptotic cells: see the listing below.
- Test system: MDA-MB-231 cancer cells
- test description: Inhibitor-induced apoptosis, flow cytometry with Annexin V and propidium iodide
- Format: cell-based, human
- stated conditions: Drug concentration 100 nM, 3 hours
Hi! Could you send only the number? It should be in %, unit omitted.

CN[C@@H](C)C(=O)N[C@H](C(=O)N1CCc2c1cc(Cc1ccc(F)cc1)c(=O)n2C)C1CCCCC1 48
[2H]C([2H])([2H])N[C@@H](C)C(=O)N[C@H](C(=O)N1CCc2cc(=O)n(Cc3ccc(F)cc3F)cc21)C(C)(C)C 52
CN[C@@H](C)C(=O)N[C@H](C(=O)N1CC(C)(C)c2cc(=O)n(Cc3ccc(F)cc3F)cc21)C1CCCCC1 46
CN[C@@H](C)C(=O)N[C@H](C(=O)N1CC(C)(C)c2cc(=O)n(Cc3ccc(F)cc3F)cc21)C(C)(C)C 47
[2H]C([2H])([2H])N[C@@H](C)C(=O)N[C@H](C(=O)N1CC(C)(C)c2cc(=O)n(Cc3ccc(F)cc3)cc21)C(C)(C)C 42

// below: Proportion of apoptotic cells requested for another compound
Data point: `[2H]C([2H])([2H])N[C@@H](C)C(=O)N[C@H](C(=O)N1CC(C)(C)c2cc(=O)n(Cc3ccc(F)cc3F)cc21)C(C)(C)C` ; Proportion of apoptotic cells = 47

----------
- target of assay: BIR3 domain of human cIAP1 (residues 255-364) (Homo sapiens (Human), UniProt Q13490)
- Sequence (Q13490 255-364): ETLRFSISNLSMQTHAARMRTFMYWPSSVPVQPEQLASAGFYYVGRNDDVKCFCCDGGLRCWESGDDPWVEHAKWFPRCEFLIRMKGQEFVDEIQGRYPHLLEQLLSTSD
- test description: Fluorescence polarization competitive binding to cIAP1 BIR3
- stated conditions: FP, peptide probe 5 nM, cIAP1 BIR3 5 nM, 1 hour room temperature
Parameter pKi: see the listing below.
Would you please state pKi, meaning minus log10 of the concentration in mol/L, as a bare number?

// known answers, use as guide
compound	pKi
CN[C@@H](C)C(=O)N[C@H](C(=O)N1CCc2cc(=O)n(Cc3ccc(F)cc3F)cc21)C(C)(C)C	9.00
CN[C@@H](C)C(=O)N[C@H](C(=O)N1CC(C)(C)c2cc(=O)n(Cc3ccc(F)cc3O)cc21)C(C)(C)C	8.66
CN[C@@H](C)C(=O)N[C@H](C(=O)N1CCc2c1cc(Cc1ccc(F)cc1F)c(=O)n2C)C(C)(C)C	8.85
CN[C@@H](C)C(=O)N[C@H](C(=O)N1CCc2c1cc(Cc1ccc(F)cc1F)c(=O)n2CC(F)(F)F)C(C)(C)C	8.89

Data point: [2H]C([2H])([2H])N[C@@H](C)C(=O)N[C@H](C(=O)N1CCc2cc(=O)n(Cc3ccc(F)cc3F)cc21)C(C)(C)C [Compound I-2-35] ; pKi = 8.92

Data point: `[2H]C([2H])([2H])N[C@@H](C)C(=O)N[C@H](C(=O)N1CC(C)(C)c2cc(=O)n(Cc3ccc(F)cc3)cc21)C(C)(C)C` ; pKi = 8.52

Data point: `CCn1c2c(cc(Cc3ccc(F)cc3F)c1=O)N(C(=O)[C@@H](NC(=O)[C@H](C)NC)C(C)(C)C)CC2` ; pKi = 9.10

Data point: `CN[C@@H](C)C(=O)N[C@H](C(=O)N1CC(C)(C)c2cc(=O)n(Cc3ccc(F)cc3)cc21)C(C)(C)C` ; pKi = 8.72

Data point: `CN[C@@H](C)C(=O)N[C@H](C(=O)N1CCc2[nH]c(=O)c(Cc3ccc(F)cc3F)cc21)C(C)(C)C` ; pKi = 8.89

Data point: `CN[C@@H](C)C(=O)N[C@H](C(=O)N1CCc2cc(=O)n(Cc3ccc(F)cc3)cc21)C(C)(C)C` ; pKi = 9.15

Data point: `C[C@H](N)C(=O)N[C@H](C(=O)N1CCc2cc(=O)n(Cc3ccc(F)cc3F)cc21)C(C)(C)C` ; pKi = 8.96

Data point: `[2H]C([2H])([2H])N[C@@H](C)C(=O)N[C@H](C(=O)N1CC(C)(C)c2cc(=O)n(Cc3ccc(F)cc3F)cc21)C(C)(C)C` ; pKi = 8.72

Data point: `CN[C@@H](C)C(=O)N[C@H](C(=O)N1CCc2[nH]c(=O)c(Cc3ccc(F)cc3)cc21)C1CCCCC1` ; pKi = 8.89

Data point: `CN[C@@H](C)C(=O)N[C@H](C(=O)N1CCc2cc(=O)n(Cc3ccc(F)cc3O)cc21)C(C)(C)C` ; pKi = 9.00

Data point: `CN[C@@H](C)C(=O)N[C@H](C(=O)N1CC(C)(C)c2c1cc(Cc1ccc(F)cc1F)c(=O)n2C)C(C)(C)C` ; pKi = 8.80

Data point: `CN[C@@H](C)C(=O)N[C@H](C(=O)N1CCc2[nH]c(=O)c(Cc3ccc(F)cc3)cc21)C(C)(C)C` ; pKi = 9.00

Data point: `CN[C@@H](C)C(=O)N[C@H](C(=O)N1CC(C)(C)c2cc(=O)n(Cc3ccc(F)cc3F)cc21)C(C)(C)C` ; pKi = 8.85

Data point: `CN[C@@H](C)C(=O)N[C@H](C(=O)N1CCc2cc(=O)n(Cc3ccc(F)cc3F)cc21)C1CCCCC1` ; pKi = 8.89

Data point: `CN[C@@H](C)C(=O)N[C@H](C(=O)N1CC(C)(C)c2cc(=O)n(Cc3ccc(F)cc3F)cc21)C1CCCCC1` ; pKi = 8.72

Data point: `[2H]C([2H])([2H])N[C@@H](C)C(=O)N[C@H](C(=O)N1CCc2cc(=O)n(Cc3ccc(F)cc3)cc21)C1CCCCC1` ; pKi = 9.00

Data point: `CN[C@@H](C)C(=O)N[C@H](C(=O)N1CCc2c1cc(Cc1ccc(F)cc1)c(=O)n2C)C(C)(C)C` ; pKi = 8.92

Data point: [2H]C([2H])([2H])N[C@@H](C)C(=O)N[C@H](C(=O)N1CCc2cc(=O)n(Cc3ccc(F)cc3F)cc21)C(C)(C)C [Compound I-2-22] ; pKi = 9.10

Data point: `CN[C@@H](C)C(=O)N[C@H](C(=O)N1CCc2c1cc(Cc1ccc(F)cc1)c(=O)n2C)C1CCCCC1` ; pKi = 8.92

----------
- target of assay: BIR3 domain of human cIAP2 (residues 236-342) (Homo sapiens (Human), UniProt Q13489)
- Sequence (Q13489 236-342): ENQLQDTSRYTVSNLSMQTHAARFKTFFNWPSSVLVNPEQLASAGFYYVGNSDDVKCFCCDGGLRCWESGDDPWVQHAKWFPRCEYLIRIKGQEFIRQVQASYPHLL
- test description: Fluorescence polarization competitive binding to cIAP2 BIR3
- stated conditions: FP, peptide probe 5 nM, cIAP2 BIR3 10 nM, 1 hour room temperature
Output: class label from Ki. Mapping: low (below 2 nM), middle (2 nM to below 6 nM), high (6 nM or more)

compound	category label
CN[C@@H](C)C(=O)N[C@H]1CN(C(=O)CC(C)C)CC[C@H]2CC[C@@H](C(=O)NC(c3ccccc3)c3ccccc3)N2C1=O [SM-406, reference compound]	middle
CN[C@@H](C)C(=O)N[C@H](C(=O)N1CCc2[nH]c(=O)c(Cc3ccc(F)cc3)cc21)C(C)(C)C	low
CN[C@@H](C)C(=O)N[C@H](C(=O)N1CC(C)(C)c2cc(=O)n(Cc3ccc(F)cc3)cc21)C(C)(C)C	high
CN[C@@H](C)C(=O)N[C@H](C(=O)N1CCc2c1cc(Cc1ccc(F)cc1)c(=O)n2C)C(C)(C)C	middle
CN[C@@H](C)C(=O)N[C@H](C(=O)N1CC(C)(C)c2cc(=O)n(Cc3ccc(F)cc3F)cc21)C1CCCCC1	middle

Turning now to a further compound:
Enquiry: Into which category would you place `CN[C@@H](C)C(=O)N[C@H](C(=O)N1CCc2c1cc(Cc1ccc(F)cc1F)c(=O)n2C)C(C)(C)C` ?
Return: middle

----------
- Test system: MDA-MB-231 cancer cells
- test description: Inhibitor-induced apoptosis, flow cytometry with Annexin V and propidium iodide
- Type: cell-based, human
- stated conditions: Drug concentration 100 nM, 3 hours
Parameter Proportion of apoptotic cells: see the listing below.
Hi! Could you send only the number? It should be in %, unit omitted.

compound	Proportion of apoptotic cells (%)
CN[C@@H](C)C(=O)N[C@H](C(=O)N1CCc2[nH]c(=O)c(Cc3ccc(F)cc3)cc21)C1CCCCC1	49
CN[C@@H](C)C(=O)N[C@H](C(=O)N1CCc2c1cc(Cc1ccc(F)cc1F)c(=O)n2C)C(C)(C)C	55
CN[C@@H](C)C(=O)N[C@H](C(=O)N1CC(C)(C)c2cc(=O)n(Cc3ccc(F)cc3O)cc21)C(C)(C)C	43

// below: Proportion of apoptotic cells requested for another compound
Data point: CN[C@@H](C)C(=O)N[C@H]1CN(C(=O)CC(C)C)CC[C@H]2CC[C@@H](C(=O)NC(c3ccccc3)c3ccccc3)N2C1=O [SM-406, reference compound] ; Proportion of apoptotic cells = 34

----------
Parameter IC50: see the listing below.
- System: MDA-MB-231 human breast cancer cells
- test description: WST-8 cell proliferation assay, MDA-MB-231
- Format: cell-based
- stated conditions: 72 hours
Hi! Could you send only the number? It should be in nM, unit omitted.

[2H]C([2H])([2H])N[C@@H](C)C(=O)N[C@H](C(=O)N1CC(C)(C)c2cc(=O)n(Cc3ccc(F)cc3F)cc21)C(C)(C)C 20

Data point: `CN[C@@H](C)C(=O)N[C@H](C(=O)N1CC(C)(C)c2cc(=O)n(Cc3ccc(F)cc3F)cc21)C(C)(C)C` ; IC50 = 21

Data point: `CN[C@@H](C)C(=O)N[C@H](C(=O)N1CCc2c1cc(Cc1ccc(F)cc1)c(=O)n2C)C1CCCCC1` ; IC50 = 5

Data point: `CN[C@@H](C)C(=O)N[C@H](C(=O)N1CCc2c1cc(Cc1ccc(F)cc1F)c(=O)n2C)C(C)(C)C` ; IC50 = 2

Data point: `CN[C@@H](C)C(=O)N[C@H](C(=O)N1CC(C)(C)c2cc(=O)n(Cc3ccc(F)cc3)cc21)C(C)(C)C` ; IC50 = 24

Data point: `CN[C@@H](C)C(=O)N[C@H](C(=O)N1CCc2cc(=O)n(Cc3ccc(F)cc3F)cc21)C1CCCCC1` ; IC50 = 8

Data point: `CN[C@@H](C)C(=O)N[C@H](C(=O)N1CCc2c1cc(Cc1ccc(F)cc1)c(=O)n2C)C(C)(C)C` ; IC50 = 2

Data point: `CN[C@@H](C)C(=O)N[C@H](C(=O)N1CCc2[nH]c(=O)c(Cc3ccc(F)cc3)cc21)C1CCCCC1` ; IC50 = 6

Data point: `CN[C@@H](C)C(=O)N[C@H](C(=O)N1CCc2[nH]c(=O)c(Cc3ccc(F)cc3F)cc21)C(C)(C)C` ; IC50 = 4
